Could you please report measured Water Adsorption for the items listed next?
assayInfo: Gravimetric vapour sorption (GVS), water vapour adsorption
Type: physicochemical
studyConditions: 50 % RH
One number for each entry, in wt %.

CCCCC1=NC2(CCCC2)C(=O)N1Cc1ccc(-c2ccccc2-c2nnn[nH]2)cc1 [Sample B, irbesartan] = 0.15

Would you mind listing Water Adsorption for each of the following compounds?
1. CCCCC1=NC2(CCCC2)C(=O)N1Cc1ccc(-c2ccccc2-c2nnn[nH]2)cc1 [Sample A, irbesartan]
2. CCCCC1=NC2(CCCC2)C(=O)N1Cc1ccc(-c2ccccc2-c2nnn[nH]2)cc1 [Sample C, irbesartan]
3. CCCCC1=NC2(CCCC2)C(=O)N1Cc1ccc(-c2ccccc2-c2nnn[nH]2)cc1 [Sample D, irbesartan]

Marked response:
1. 0.29
2. 0.18
3. 0.33

---

assayInfo: Water surface area from GVS data, BET model
Assay type: physicochemical
studyConditions: WSA data of Table 6 (ESW and BET)
observedProperty: surface hydrophilicity group predicted from the WSA data

CCCCC1=NC2(CCCC2)C(=O)N1Cc1ccc(-c2ccccc2-c2nnn[nH]2)cc1 [Sample D, irbesartan] = relatively hydrophilic
CCCCC1=NC2(CCCC2)C(=O)N1Cc1ccc(-c2ccccc2-c2nnn[nH]2)cc1 [Sample B, irbesartan] = relatively hydrophobic
CCCCC1=NC2(CCCC2)C(=O)N1Cc1ccc(-c2ccccc2-c2nnn[nH]2)cc1 [Sample A, irbesartan] = relatively hydrophilic
CCCCC1=NC2(CCCC2)C(=O)N1Cc1ccc(-c2ccccc2-c2nnn[nH]2)cc1 [Sample C, irbesartan] = relatively hydrophobic

---

assayInfo: Gravimetric vapour sorption (GVS), water vapour adsorption
Type: physicochemical
studyConditions: 5 % RH
Could you please report measured Water Adsorption for the items listed next?
Answers are plain numbers, in wt %.

CCCCC1=NC2(CCCC2)C(=O)N1Cc1ccc(-c2ccccc2-c2nnn[nH]2)cc1 [Sample D, irbesartan] = 0.07
CCCCC1=NC2(CCCC2)C(=O)N1Cc1ccc(-c2ccccc2-c2nnn[nH]2)cc1 [Sample B, irbesartan] = 0.03
CCCCC1=NC2(CCCC2)C(=O)N1Cc1ccc(-c2ccccc2-c2nnn[nH]2)cc1 [Sample A, irbesartan] = 0.06

Exam item: Query (molecule): CCCCC1=NC2(CCCC2)C(=O)N1Cc1ccc(-c2ccccc2-c2nnn[nH]2)cc1 [Sample C, irbesartan] ; field requested: Water Adsorption
Marked response: 0.04

---

Could you please report measured Water Adsorption for the items listed next?
assayInfo: Gravimetric vapour sorption (GVS), water vapour adsorption
Type: physicochemical
studyConditions: 80 % RH
State the value with its unit after it.

CCCCC1=NC2(CCCC2)C(=O)N1Cc1ccc(-c2ccccc2-c2nnn[nH]2)cc1 [Sample B, irbesartan] = 0.23 wt %
CCCCC1=NC2(CCCC2)C(=O)N1Cc1ccc(-c2ccccc2-c2nnn[nH]2)cc1 [Sample C, irbesartan] = 0.27 wt %
CCCCC1=NC2(CCCC2)C(=O)N1Cc1ccc(-c2ccccc2-c2nnn[nH]2)cc1 [Sample D, irbesartan] = 0.52 wt %

Now consider the entry below.
Exam item: Query (compound): CCCCC1=NC2(CCCC2)C(=O)N1Cc1ccc(-c2ccccc2-c2nnn[nH]2)cc1 [Sample A, irbesartan] ; field requested: Water Adsorption
Marked response: 0.44 wt %

---

assayInfo: Particle size profile of irbesartan samples
Type: physicochemical
studyConditions: 90 % of particles smaller
observedProperty: D (v, 0.9) particle size (μm)
Give bare numbers, in μm.

Solved entries:
CCCCC1=NC2(CCCC2)C(=O)N1Cc1ccc(-c2ccccc2-c2nnn[nH]2)cc1 [Sample B, irbesartan] = 17
CCCCC1=NC2(CCCC2)C(=O)N1Cc1ccc(-c2ccccc2-c2nnn[nH]2)cc1 [Sample A, irbesartan] = 12

Would you mind listing D (v, 0.9) particle size for each of the following compounds?
1. CCCCC1=NC2(CCCC2)C(=O)N1Cc1ccc(-c2ccccc2-c2nnn[nH]2)cc1 [Sample C, irbesartan]
2. CCCCC1=NC2(CCCC2)C(=O)N1Cc1ccc(-c2ccccc2-c2nnn[nH]2)cc1 [Sample D, irbesartan]

Marked response:
[13, 7]
